test: PET hydrolysis, aromatic products released after 48 h (umol product/mg enzyme); higher = more PET depolymerization activity; settings: substrate: aFilm; 40 °C; pH 7.5
property measured: PET hydrolysis

Query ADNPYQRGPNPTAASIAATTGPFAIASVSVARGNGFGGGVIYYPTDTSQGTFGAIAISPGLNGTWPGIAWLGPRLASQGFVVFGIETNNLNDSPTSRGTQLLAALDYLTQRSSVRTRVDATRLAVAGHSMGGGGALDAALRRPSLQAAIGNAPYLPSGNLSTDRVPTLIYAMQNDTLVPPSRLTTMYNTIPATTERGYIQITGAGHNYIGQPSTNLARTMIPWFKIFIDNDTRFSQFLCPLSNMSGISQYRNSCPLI [ESM159] yields PET hydrolysis of 2

Query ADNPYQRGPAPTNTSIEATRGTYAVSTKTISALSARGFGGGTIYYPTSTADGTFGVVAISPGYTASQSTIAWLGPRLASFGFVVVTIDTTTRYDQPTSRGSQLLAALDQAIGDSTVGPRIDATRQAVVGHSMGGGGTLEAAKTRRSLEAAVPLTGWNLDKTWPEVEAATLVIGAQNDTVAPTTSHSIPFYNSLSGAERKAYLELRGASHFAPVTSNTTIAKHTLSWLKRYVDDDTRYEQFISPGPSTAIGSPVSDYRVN [DP022] yields PET hydrolysis of < 3

Query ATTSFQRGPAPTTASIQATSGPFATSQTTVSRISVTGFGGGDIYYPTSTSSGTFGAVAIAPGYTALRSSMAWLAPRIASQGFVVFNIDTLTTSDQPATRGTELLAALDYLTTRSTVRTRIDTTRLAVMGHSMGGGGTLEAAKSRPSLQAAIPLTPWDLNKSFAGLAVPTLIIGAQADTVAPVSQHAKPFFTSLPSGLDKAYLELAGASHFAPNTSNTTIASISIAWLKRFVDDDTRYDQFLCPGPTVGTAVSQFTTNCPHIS [ESM156] yields PET hydrolysis of < 3

Query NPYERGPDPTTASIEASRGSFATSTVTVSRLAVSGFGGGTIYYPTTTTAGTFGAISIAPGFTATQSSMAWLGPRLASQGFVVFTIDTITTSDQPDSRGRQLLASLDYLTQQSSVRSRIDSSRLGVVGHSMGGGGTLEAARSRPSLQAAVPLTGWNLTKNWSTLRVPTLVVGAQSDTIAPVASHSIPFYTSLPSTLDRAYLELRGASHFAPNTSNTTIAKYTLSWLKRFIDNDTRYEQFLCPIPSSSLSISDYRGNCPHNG [ESM167] yields PET hydrolysis of 7.5

Query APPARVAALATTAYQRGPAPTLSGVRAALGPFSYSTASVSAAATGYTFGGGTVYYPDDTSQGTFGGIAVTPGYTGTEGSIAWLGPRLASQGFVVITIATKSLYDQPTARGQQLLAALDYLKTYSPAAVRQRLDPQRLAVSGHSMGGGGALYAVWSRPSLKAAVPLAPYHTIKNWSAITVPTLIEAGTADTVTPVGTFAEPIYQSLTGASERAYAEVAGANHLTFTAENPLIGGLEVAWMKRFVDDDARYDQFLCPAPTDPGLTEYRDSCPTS [TEP101] yields PET hydrolysis of < 3

Query ADNPYQRGPNPTQASIAANRGTFATAETSVGGGNGFGGAKIYYPTDTSQGTFGAIAVSPGYTATWAAEGAWMGHWLASFGFVVIGIDTINRNDREYARGTQLLAALDYLTQRSSVRTRVDPNRLAVMGHSMGGGGTISAALRRPTLKAAIGLAPYYPSQSTSGMQVPTMLLAGQNDGTSTPASIVTFYNDIPASTEKVYLELTGAGHGFPTSNNSVVTRKVIPWMKIFIDQDTRYTQFLCPLQDLTGIRTYRNSCPLLPNDPGTTFSLAGSASGKCADVPGRVQTNGTGLIIWTCNNAGNQQWTQTPAGELRIYGNTKCMDANASGQGARVTINTCNGGNSQKWTVNTNGTVTNAASGRCLDAGGTADNSPVVVNTCNAASGQTWTKRP [DP047] yields PET hydrolysis of < 3
